Catalogue of AC50 values
- Test system: INS-1E rat beta cells, no cytokines, CellTiter-Glo ATP, 48 h
- METHOD_DESCRIPTION: cytokine-free beta-cell viability effect – INS-1E rat cells, ATP luminescence, cherry pick, counter-screen for beta-cell apoptosis protection project, dose response (AID 463229)
OBSERVABLE: AC50

>>> df
                                   compound  observable  readout_value
0         CCCCCCCCn1c2c(c(=N)c3c1CCC3)CCCC2        AC50     < 0.195 µM
1  Cc1cc(F)ccc1S(=O)(=O)Nc1ccccc1C(=O)Nc1ccccc1-c1nc2ccccc2[nH]1        AC50        7.72 µM
2  Cc1cccc(N2C(=S)N=C(Nc3c(C)cccc3C)C23CCOC(C)(C)C3)c1 (stereo not given)        AC50        3.79 µM
3  CC1(C)C[C@@H]2C[C@@](C)(CN2C(=O)c2cc(COc3cccc(C(F)(F)F)c3)on2)C1        AC50          17 µM
4         CCc1c(C)nc2ncnn2c1NCCc1ccc(OC)cc1        AC50        6.85 µM

* * *

- Tested on: INS-1E rat beta cells, no cytokines, CellTiter-Glo ATP, 48 h
- METHOD_DESCRIPTION: cytokine-free beta-cell viability effect – INS-1E rat cells, ATP luminescence, cherry pick, counter-screen for beta-cell apoptosis protection project, dose response (AID 463229)
OBSERVABLE: AC50

In [3]: df
Out[3]:
                         chemical_structure  observable  readout_value
0  CCCOc1ccc(/C=N/NC(=S)Nc2ccccc2[N+](=O)[O-])c(O)c1        AC50        7.44 µM
1         Clc1ccc(CSc2ccc(-c3ccccn3)nn2)cc1        AC50        6.32 µM
2  Cc1cc(N2CCN(S(=O)(=O)c3ccc(Cl)cc3)CC2)c2ccccc2n1        AC50         7.4 µM
